The measured values listed here are drawn from patent US20220259212A1.

test-system: IDO1 in SKOV3 cells (Homo sapiens)
Construct: SKOV3 cells (NCI, No. 0503405) which upregulate IDO1 after stimulation with IFNγ; host or cells: SKOV3 cells stimulated with IFNγ
Sequence (P14902 whole entry): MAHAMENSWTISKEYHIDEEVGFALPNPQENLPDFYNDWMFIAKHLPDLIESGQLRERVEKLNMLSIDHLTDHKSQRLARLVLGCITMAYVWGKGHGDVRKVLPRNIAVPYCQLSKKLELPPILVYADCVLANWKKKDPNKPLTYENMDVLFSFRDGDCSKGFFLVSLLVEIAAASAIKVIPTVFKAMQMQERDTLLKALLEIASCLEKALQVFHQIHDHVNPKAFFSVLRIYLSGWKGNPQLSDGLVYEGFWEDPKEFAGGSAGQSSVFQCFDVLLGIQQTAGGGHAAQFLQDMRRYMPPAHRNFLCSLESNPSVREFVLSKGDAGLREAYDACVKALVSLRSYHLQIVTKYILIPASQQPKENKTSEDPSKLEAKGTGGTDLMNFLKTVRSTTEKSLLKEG
experimental-protocol: Cell-based IDO inhibitory activity in IFNγ-stimulated SKOV3 cells (NFK + kynurenine by LCMS)
reported-conditions: IFNγ 50 ng/ml, 200 uM L-tryptophan, 24 hours
// classify: if (IC50 < 70 nM) satisfied else not satisfied

Consider the worked cases shown below.
O[C@@H](c1cn(-c2ccc(OCC3COC3)c(F)c2)nn1)c1c(C2CC2)ncc2cncn12    satisfied
COCc1ccc(-n2cc([C@H](O)c3c(C4CC4)ncc4cncn34)nn2)cc1    not satisfied
OC(c1cn(-c2ccccc2)nn1)c1c(Cl)ccc2cncn12 (racemic)    not satisfied
Oc1ccc(-n2cc(C(O)c3c(C4CC4)ccc4cncn34)nn2)cc1Cl (racemic) [Example 7]    satisfied
OC(c1ccn(-c2ccccc2)n1)c1c(Cl)ccc2cncn12 (racemic) [Ref2, reference compound]    not satisfied

**Query** Answer whether the molecule `O[C@@H](c1cn(-c2ccccc2)nn1)c1c(C2CC2)ncc2cncn12` has IC50 strictly less than 70 nM
**Result** not satisfied
